These measurements were taken from patent US4418192A.

system: DNA synthesis in L 1210 cells; test: Inhibition of DNA synthesis in L 1210 cells (radioactive precursor incorporation); assay type: cell-based; settings: Mus musculus, L1210; L 1210 cells, 15 min pre-incubation, 60 min with radioactive precursor (^14 C-uridine or ^14 C-thymidine); read-out: IC50 DNA synthesis
Below: a set of entries, each annotated with reported log10 IC50.
Please keep in mind that the values are log10 of IC50 expressed in µg/mL.

// below: answered molecules
{"columns": ["Molecule", "Experimental target", "log10 IC50"],
 "data": [
  ["CC(=O)[C@]1(O)Cc2c(O)c3c(c(O)c2[C@@H](O[C@H]2C[C@H](N(C)C)[C@H](O[C@H]4C[C@H](O)[C@H](O[C@H]5CCC(=O)[C@H](C)O5)[C@H](C)O4)[C@H](C)O2)C1)C(=O)c1c(O)cccc1C3=O [CMN--RDC]", "DNA synthesis in L 1210 cells", -0.72],
  ["CC[C@@]1(O)C[C@H](O[C@H]2C[C@H](N(C)C)[C@H](O[C@H]3C[C@H](O)[C@H](O[C@H]4CCC(=O)[C@H](C)O4)[C@H](C)O3)[C@H](C)O2)c2c(cc3c(c2O)C(=O)c2c(O)cccc2C3=O)[C@H]1C(=O)OC [Aclacinomycin A, reference compound]", "DNA synthesis in L 1210 cells", -0.19],
  ["COc1cccc2c1C(=O)c1c(O)c3c(c(O)c1C2=O)C[C@@](O)(C(=O)CO)C[C@@H]3O[C@H]1C[C@H](N(C)C)[C@H](O[C@H]2C[C@H](OC(C)=O)[C@H](O[C@H]3CCC(=O)[C@H](C)O3)[C@H](C)O2)[C@H](C)O1 [3\"-O--acetyl AMN--RDC]", "DNA synthesis in L 1210 cells", -0.49],
  ["COc1cccc2c1C(=O)c1c(O)c3c(c(O)c1C2=O)C[C@@](O)(C(C)=O)C[C@@H]3O[C@H]1C[C@H](N)[C@H](O)[C@H](C)O1 [Daunomycin, reference compound]", "DNA synthesis in L 1210 cells", -0.52],
  ["COc1cccc2c1C(=O)c1c(O)c3c(c(O)c1C2=O)C[C@@](O)(C(=O)CO)C[C@@H]3O[C@H]1C[C@H](N)[C@H](O)[C@H](C)O1 [Adriamycin, reference compound]", "DNA synthesis in L 1210 cells", 0.10],
  ["COc1cccc2c1C(=O)c1c(O)c3c(c(O)c1C2=O)C[C@@](O)(C(=O)COC(=O)Cc1ccccc1)C[C@@H]3O[C@H]1C[C@H](N(C)C)[C@H](O[C@H]2C[C@H](OC(C)=O)[C@H](O[C@H]3CCC(=O)[C@H](C)O3)[C@H](C)O2)[C@H](C)O1 [14-O--phenylacetyl-3\"-O--acetyl AMN--RDC]", "DNA synthesis in L 1210 cells", 0.60]
]}

Name the reported log10 IC50 value associated with the molecule COc1cccc2c1C(=O)c1c(O)c3c(c(O)c1C2=O)C[C@@](O)(C(=O)CO)C[C@@H]3O[C@H]1C[C@H](N(C)C)[C@H](O[C@H]2C[C@H](O)[C@H](O[C@H]3CCC(=O)[C@H](C)O3)[C@H](C)O2)[C@H](C)O1 [AMN--RDC]
-0.82

Name the reported log10 IC50 value associated with the molecule COc1cccc2c1C(=O)c1c(O)c3c(c(O)c1C2=O)C[C@@](O)(C(C)=O)C[C@@H]3O[C@H]1C[C@H](N(C)C)[C@H](O[C@H]2C[C@H](O)[C@H](O[C@H]3CCC(=O)[C@H](C)O3)[C@H](C)O2)[C@H](C)O1 [DMN--RDC]
-0.77

Name the reported log10 IC50 value associated with the molecule CC(=O)O[C@H]1C[C@H](O[C@@H]2[C@H](C)O[C@@H](O[C@H]3C[C@](O)(C(C)=O)Cc4c(O)c5c(c(O)c43)C(=O)c3c(O)cccc3C5=O)C[C@@H]2N(C)C)O[C@@H](C)[C@H]1O[C@H]1CCC(=O)[C@H](C)O1 [3"-O--acetyl CMN--RDC]
-0.44

Name the reported log10 IC50 value associated with the molecule COc1cccc2c1C(=O)c1c(O)c3c(c(O)c1C2=O)C[C@@](O)(C(C)=O)C[C@@H]3O[C@H]1C[C@H](N)[C@H](O[C@H]2C[C@H](O)[C@H](O[C@H]3CCC(=O)[C@H](C)O3)[C@H](C)O2)[C@H](C)O1 [DMN--DaDC]
0.06

Name the reported log10 IC50 value associated with the molecule COc1cccc2c1C(=O)c1c(O)c3c(c(O)c1C2=O)C[C@@](O)(C(C)=O)C[C@@H]3O[C@H]1C[C@H](N(C)C)[C@H](O[C@H]2C[C@H](O)[C@H](O)[C@H](C)O2)[C@H](C)O1 [DMN--RD]
-0.55

Name the reported log10 IC50 value associated with the molecule COc1cccc2c1C(=O)c1c(O)c3c(c(O)c1C2=O)C[C@@](O)(C(C)=O)C[C@@H]3O[C@H]1C[C@H](N(C)C)[C@H](O[C@H]2C[C@H](OC(C)=O)[C@H](O[C@H]3CCC(=O)[C@H](C)O3)[C@H](C)O2)[C@H](C)O1 [3"-O--acetyl DMN--RDC]
-0.52
